Hey, just so you know, these numbers are from PubChem BioAssay AID1259418.

In this section we review reported max activity values for a set of molecules.
assay: inhibitors of Toxoplasma growth in IFN-γ-primed HeLa – cell-based, ME49Luc, luciferase, 72 h, dose response (AID 1259418); conditions: T. gondii ME49Luc in IFN-y HeLa, active compounds read low, -100% = high-dose IFN-γ control wells; at 19.5 µM unless noted
Among all 3,400 compounds or so, about 840 (25%) were called active. Not shown: some 11% with an inconclusive outcome. The list is a sample of the results. Potency and affinity values are given separately.
quantity-name: max activity

INSERT INTO measurements (molecule, meas_value) VALUES
  ('COc1cc(CN2C[C@@H]3N[C@H](C2)C3c2ccc(-c3ccc(C#N)cc3)cc2)cc(OC)c1 (stereo not given in full)', '27% [at 10 µM] (inactive)'),
  ('COCCO[C@H]1CCN(Cc2c(C)noc2C)[C@H]1Cc1ccccc1', '11.4% (inactive)'),
  ('OC[C@@H]1[C@@H](c2ccc(-c3cccnc3)cc2)[C@@H]2CN(Cc3ccccn3)CCCCN12', '-5.02% [at 1.2 µM] (inactive)'),
  ('Fc1cccc(-c2ccc(C3[C@H]4CNC[C@@H]3N4Cc3ccccn3)cc2)c1 (stereo not given in full)', '18.9% [at 5 µM] (inactive)'),
  ('Cc1cccc(NC(=O)CN2CCC3(CC2)N=C(c2ccc(Cl)cc2)C(=O)N3)c1', '17.4% (inactive)');

* * *

assay: inhibitors of Toxoplasma growth in IFN-γ-primed HeLa – cell-based, ME49Luc, luciferase, 72 h, dose response (AID 1259418); conditions: T. gondii ME49Luc in IFN-y HeLa, active compounds read low, -100% = high-dose IFN-γ control wells; at 19.5 µM unless noted
Screen size: about 3,400 compounds; about 840 (25%) were called active. Inconclusive results (about 11%) are left out. The list is a sample of the results. Entries with a potency or affinity are not part of this list.
quantity-name: max activity

INSERT INTO results (compound, quantity_name, meas_value) VALUES
  ('Clc1ccc(CSc2nc(NCc3ccccc3)c3ccccc3n2)cc1', 'max activity', '30.6% [at 2.6 µM] (inactive)'),
  ('CCS(=O)(=O)N1CSC[C@@H]1C(=O)NCCc1csc(-c2ccccc2)n1', 'max activity', '7.03% [at 5 µM] (inactive)'),
  ('CCOc1ccc(-c2nc3c(s2)CN(S(=O)(=O)c2cccc(C)c2)CC3)cc1', 'max activity', '29% (inactive)'),
  ('COc1ccc(CCNc2ncnc3c2cnn3-c2cccc(C)c2)cc1OC', 'max activity', '11.8% [at 1.35 µM] (inactive)'),
  ('COCCN1C(=O)CCC12CCC(NC(=O)c1cc(C)on1)CC2 (configuration not stated)', 'max activity', '12.8% (inactive)'),
  ('Cc1ccc(-c2coc(-c3ccc(NC(=O)COc4ccc(F)cc4)cc3)n2)c(C)c1', 'max activity', '10.4% [at 0.35 µM] (inactive)'),
  ('Cc1cccc(Nc2ncnc3c2cnn3-c2ccc(C)cc2C)c1', 'max activity', '-13.4% [at 10 µM] (inactive)'),
  ('O=C(NCCc1csc(-c2ccccc2)n1)[C@H]1CSCN1S(=O)(=O)c1ccc(F)cc1', 'max activity', '15.5% [at 10 µM] (inactive)'),
  ('COc1ccc(NC(=O)Nc2ccc(-c3nc(-c4ccccc4)co3)cc2)cc1', 'max activity', '-14% [at 0.68 µM] (inactive)'),
  ('COc1ccccc1CCC(=O)Nc1ccc2c(c1)CCC(=O)N2C', 'max activity', '-10.7% [at 0.16 µM] (inactive)'),
  ('CCc1nc(OCC(=O)Nc2cc(C)cc(C)c2)c2ccccc2n1', 'max activity', '9.9% [at 10 µM] (inactive)'),
  ('COc1cc(NC(=O)Nc2ccc(-c3nc(-c4ccccc4)co3)cc2)cc(OC)c1OC', 'max activity', '43.1% (inactive)'),
  ('Clc1ccc(CNc2nc(SCc3ccc(Cl)cc3)nc3ccccc23)cc1', 'max activity', '7.58% [at 2.6 µM] (inactive)'),
  ('CCc1nc(OCC(=O)Nc2cccc(OC)c2)c2ccccc2n1', 'max activity', '13.8% [at 0.16 µM] (inactive)'),
  ('CCCCC(=O)N1CCC(C(=O)NCCc2csc(-c3ccccc3)n2)CC1', 'max activity', '6.78% [at 2.6 µM] (inactive)'),
  ('Cc1cccc(-c2nc(Cn3nnc(-c4nc(-c5cccc(F)c5)no4)c3C)c(C)o2)c1', 'max activity', '-7.79% [at 1.35 µM] (inactive)'),
  ('Cc1cccc(C)c1NC(=O)CN1CCC2(CC1)N=C(c1ccc(F)cc1)C(=O)N2', 'max activity', '10% [at 1.35 µM] (inactive)'),
  ('O=C(CCC1Nc2c3ccccc3nc(=S)n2C1=O)NCc1cccs1 (configuration not stated)', 'max activity', '14.7% [at 5 µM] (inactive)'),
  ('O=C(NCCc1csc(-c2ccccc2)n1)[C@H]1CSCN1S(=O)(=O)c1ccccc1', 'max activity', '14.6% (inactive)'),
  ('COc1ccc(-c2nc(Cn3nnc(-c4nc(-c5ccccn5)no4)c3C)c(C)o2)cc1', 'max activity', '-5.61% [at 10 µM] (inactive)'),
  ('COc1cccc(C(=O)Nc2ccc(-c3nc(-c4cc(C)ccc4C)co3)cc2)c1', 'max activity', '7.15% [at 0.16 µM] (inactive)'),
  ('COc1ccc(-c2nc(Cn3c(=O)c4c(C)cc(C)nc4n(-c4ccccc4)c3=O)c(C)o2)cc1OC', 'max activity', '-11.3% [at 1.35 µM] (inactive)'),
  ('Cc1ccccc1S(=O)(=O)N1CSC[C@@H]1C(=O)NCCc1csc(-c2ccccc2)n1', 'max activity', '-13% [at 0.16 µM] (inactive)'),
  ('COc1cccc(NC(=O)Nc2ccc(-c3nc(-c4cccc(Br)c4)co3)cc2)c1', 'max activity', '13.3% (inactive)'),
  ('COc1ccc(-c2nc(NCc3ccccc3Cl)c3ccccc3n2)cc1', 'max activity', '7.56% [at 0.16 µM] (inactive)'),
  ('Cc1cccc(-n2ncc3c(NCCc4ccccc4)ncnc32)c1', 'max activity', '-21.4% [at 0.35 µM] (inactive)'),
  ('O=C(c1ccccc1F)N1CCC2(CC1)Nc1cc(F)ccc1-n1cccc12', 'max activity', '-7.85% [at 2.6 µM] (inactive)'),
  ('Clc1cccc(CSc2nc(NCCc3ccccc3)c3ccccc3n2)c1', 'max activity', '-7.56% [at 0.16 µM] (inactive)'),
  ('O=C(Nc1ccccc1)Nc1ccc(-c2nc(-c3ccccc3)co2)cc1', 'max activity', '51.3% (inactive)'),
  ('CCCCc1ccc(Nc2ncnc3c2cnn3-c2ccccc2)cc1', 'max activity', '-7.99% [at 0.68 µM] (inactive)'),
  ('COc1ccc(N2CC(NC(=O)C(=O)c3c(C)[nH]c4ccccc34)CC2=O)cc1 (configuration not stated)', 'max activity', '15.6% [at 2.6 µM] (inactive)'),
  ('CCOC(=O)C1CCCN(c2nc(-c3ccc(OC)cc3)nc3ccccc23)C1 (configuration not stated)', 'max activity', '-19.8% [at 0.16 µM] (inactive)'),
  ('CCc1ccccc1Nc1ncnc2c1cnn2-c1ccccc1', 'max activity', '13.8% [at 10 µM] (inactive)'),
  ('CCc1ccc(-c2noc(-c3nnn(Cc4nc(-c5ccccc5)oc4C)c3C)n2)cc1', 'max activity', '20.7% (inactive)'),
  ('COc1ccccc1N(Cc1nc(-c2ccccc2)oc1C)S(=O)(=O)c1ccccc1C', 'max activity', '9.45% [at 5 µM] (inactive)'),
  ('Clc1ccc(CSc2nc(NCCc3ccccc3)c3ccccc3n2)cc1', 'max activity', '29.6% [at 2.6 µM] (inactive)'),
  ('Cc1ccc(C)c(NC(=O)COc2nc(C)nc3ccccc23)c1', 'max activity', '15.8% [at 10 µM] (inactive)'),
  ('CCS(=O)(=O)N1CC(=O)N2[C@H](CO)[C@@H](c3ccc(-c4cccc(F)c4)cc3)[C@@H]2C1', 'max activity', '-8.63% (inactive)'),
  ('Clc1ccc(-n2ncc3c(NCCc4ccccc4)ncnc32)cc1', 'max activity', '36% (inactive)'),
  ('O=C(NCCc1csc(-c2ccccc2)n1)[C@H]1CCCN1C(=O)c1ccco1', 'max activity', '-10.6% [at 0.16 µM] (inactive)'),
  ('COc1ccc(CNc2nc(SCc3ccccc3Cl)nc3ccccc23)cc1', 'max activity', '17.2% (inactive)'),
  ('CC(C)CNC(=O)C1Cn2ccnc2C2(CCN(c3ncccn3)CC2)O1 (configuration not stated)', 'max activity', '47.8% (inactive)');

* * *

experiment: inhibitors of Toxoplasma growth in IFN-γ-primed HeLa – cell-based, ME49Luc, luciferase, 72 h, dose response (AID 1259418); conditions: T. gondii ME49Luc in IFN-y HeLa, active compounds read low, -100% = high-dose IFN-γ control wells; at 19.5 µM unless noted
The campaign covered roughly 3,400 compounds. About 840 (25%) were called active. About 11% were inconclusive and are not listed. A selection follows. Potency and affinity values are given separately.
quantity-name: max activity

INSERT INTO results (molecule, meas_value) VALUES
  ('COc1ccc2c(c1)NC1(CCN(C(=O)Cc3ccc(C)cc3)CC1)c1cccn1-2', '5.57% [at 0.35 µM] (inactive)'),
  ('O=C(NCc1cccnc1)C1CCN(Cc2cc3ccccc3n2Cc2cccc(Cl)c2)CC1', '-5.31% [at 5 µM] (inactive)'),
  ('COc1ccccc1NC(=O)N1CC(=O)N2[C@H](C1)[C@@H](c1ccc(C#CC(C)C)cc1)[C@@H]2CO', '-17.8% (inactive)'),
  ('COc1ccc(CNC(=O)CC2N=C3c4ccccc4N=C(SCc4ccc(C)cc4C)N3C2=O)cc1 (centres undefined)', '-42% (inactive)'),
  ('COc1ccc(CNC(=O)CC2N=C3c4ccccc4N=C(SCc4ccccc4F)N3C2=O)cc1 (centres undefined)', '17.8% [at 10 µM] (inactive)'),
  ('Cc1cccc(Cn2c(CN3CCC(C(=O)NCCCN4CCCC4=O)CC3)cc3ccccc32)c1', '13.5% (inactive)'),
  ('CCC(C(=O)N1CCC[C@@H]1C(=O)NCCc1csc(C)n1)c1ccccc1 (some centres undefined)', '9.81% [at 0.35 µM] (inactive)'),
  ('O=C(NCCN1CCCC1)C1CCN(Cc2cc3ccccc3n2Cc2cccc(Cl)c2)CC1', '-8.03% [at 1.35 µM] (inactive)'),
  ('CCCCNC(=O)CC1N=C2c3ccccc3N=C(SCc3ccc(F)cc3)N2C1=O (centres undefined)', '8.45% [at 2.6 µM] (inactive)'),
  ('Cc1nc(-c2ccc(F)cc2)sc1-c1ccc(SCc2ccccc2Cl)nn1', '10% [at 0.16 µM] (inactive)'),
  ('Cc1ccc(C(=O)Nc2ccc(N3CCC(C(N)=O)(N4CCCCC4)CC3)c(C(=O)O)c2)cc1', '15% [at 2.6 µM] (inactive)'),
  ('O=C(CC1N=C2c3ccccc3N=C(SCc3cc(=O)n4ccccc4n3)N2C1=O)NCc1ccc(F)cc1 (centres undefined)', '17.7% [at 2.6 µM] (inactive)'),
  ('CCc1cc(C2CCCN2C(=O)Cn2nc(C(F)(F)F)cc2C)on1 (centres undefined)', '-8.33% [at 5 µM] (inactive)'),
  ('COc1ccc(-c2noc(-c3nnn(Cc4nc(-c5ccccc5OC)oc4C)c3C)n2)cc1OC', '11.4% [at 0.16 µM] (inactive)'),
  ('O=C(C1CCN(Cc2cc3ccccc3n2Cc2cccc(Cl)c2)CC1)N1CCCC1', '-6.26% [at 1.35 µM] (inactive)'),
  ('NC(=O)C1(N2CCCCC2)CCN(c2ccc(NC(=O)c3ccccc3F)cc2C(=O)O)CC1', '-16.3% [at 0.35 µM] (inactive)'),
  ('Cc1nc(-c2ccc(F)cc2)sc1-c1ccc(SCc2ccc(Cl)c(Cl)c2)nn1', '7.38% [at 2.6 µM] (inactive)'),
  ('Cc1ccc(Cn2c(CN3CCC(C(=O)N4CCCC4)CC3)cc3ccccc32)cc1', '17.8% [at 2.6 µM] (inactive)'),
  ('COc1ccc(CNC(=O)CCC2N=C3c4ccccc4N=C(SCc4ccc(C)cc4)N3C2=O)cc1 (centres undefined)', '16.4% [at 1.35 µM] (inactive)');
